Data provenance: ChEMBL document CHEMBL3734658

- TARGET_ENTITY: Hypoxia-inducible factor 1-alpha (Homo sapiens)
- PROTOCOL: Inhibition of HIF-1alpha in human H1299 cells at 100 nM after 72 hrs subsequently incubated for 12 hrs under hypoxic conditions by Western blot assay relative to control
- Format: cell-based
- CONDITION_DETAILS: values are per cent of control
EXPERIMENTAL_ENDPOINT: response, % of control (%)
Form entry: value (%) — number only.

Problem: Which response, % of control is reported for this compound? COc1ccc(/C=C/c2ccc3c(c2OC)C=CC(C)(C)O3)c(F)c1OC
Result: 134

Problem: Which response, % of control is reported for this compound? COc1ccc([C@H](C)[C@H](OC(C)=O)c2ccc3c(c2OC)C=CC(C)(C)O3)c(F)c1OC (relative stereo)
Result: 79.4

Problem: Which response, % of control is reported for this compound? COc1ccc(/C=C/c2ccc3c(c2OC)C=CC(C)(C)O3)nc1OC
Result: 133

Problem: Which response, % of control is reported for this compound? COc1ccc(C/C(=N/O)c2ccc3c(c2OC)C=CC(C)(C)O3)nc1OC
Result: 79.2

Problem: Which response, % of control is reported for this compound? COc1ccc(C/C(=N\O)c2ccc3c(c2OC)C=CC(C)(C)O3)nc1OC
Result: 78.5

Problem: Which response, % of control is reported for this compound? COc1cc2c(cc1OC)[C@@H]1C(=O)c3ccc4c(c3O[C@@H]1CO2)C=CC(C)(C)O4
Result: 64

Problem: Which response, % of control is reported for this compound? COc1ccc([C@H](O)[C@@H](O)c2ccc3c(c2OC)C=CC(C)(C)O3)nc1OC (relative stereo)
Result: 68.9

Problem: Which response, % of control is reported for this compound? COc1ccc(C(C)(C)C(O)c2ccc3c(c2OC)C=CC(C)(C)O3)nc1OC (stereo not given)
Result: 69.2

Problem: Which response, % of control is reported for this compound? COc1ccc(C(C)C(OC(=O)C2CCC2)c2ccc3c(c2OC)C=CC(C)(C)O3)c(F)c1OC (stereo not given)
Result: 69.5

Problem: Which response, % of control is reported for this compound? COc1ccc(CC(=O)c2ccc3c(c2OC)C=CC(C)(C)O3)c(F)c1OC
Result: 67.8

Problem: Which response, % of control is reported for this compound? COc1ccc(CC(OC(N)=O)c2ccc3c(c2OC)C=CC(C)(C)O3)c(F)c1OC (stereo not given)
Result: 88.9

Problem: Which response, % of control is reported for this compound? COc1ccc(C(C)C(OC(C)=O)c2ccc3c(c2OC)C=CC(C)(C)O3)nc1OC (stereo not given)
Result: 96.7

Problem: Which response, % of control is reported for this compound? COc1ccc(C(C)(C)C(O)c2ccc3c(c2OC)C=CC(C)(C)O3)c(F)c1OC (stereo not given)
Result: 68

Problem: Which response, % of control is reported for this compound? CCC(c1ccc(OC)c(OC)c1F)C(OC(=O)C1CC1)c1ccc2c(c1OC)C=CC(C)(C)O2 (stereo not given)
Result: 87.9

Problem: Which response, % of control is reported for this compound? COc1ccc(CC(O)c2ccc3c(c2OC)C=CC(C)(C)O3)c(F)c1OC (stereo not given)
Result: 74.3
